# Test system: SF-295 CNS
# experiment_notes: NCI-60 one-dose screen, 48 h (100 = growth as untreated, 0 = no growth, -100 = all killed)
# experimental_conditions: 10 µM unless noted
# Protocol: Cells are grown in 96 well plates and exposed to the test compound for 48 hours. Compounds are tested at a single concentration, which is 10^-5 M for most compounds. The reported endpoint is percent growth (GI% or GIPRCNT), where numbers from 0 - 100% represent growth inhibition, and numbers from -100% - 0 represent cell death. For example, a value of 40 represents 60% growth inhibition. A value of 0 means no net growth occurred over the course of the experiment. […]
This is part of a sample that, as a whole, favours compounds with a hit. Of some 83,000 tested, about 20% had one in any assay.
Each entry below carries its recorded growth.
Number in %, nothing else.

| molecule | scale_unit | test_result |
| --- | --- | --- |
| C/C(=N\N=C1/SCC(=O)N1c1ccccc1)c1ccco1 | % | 98.3 |
| CCCCCCCCN(CCCCCCCC)CC(O)c1cc(-c2ccccc2)nc2ccc(OC)cc12 (stereo not given) | % | 93.8 |
| CCC(C)Nc1ccc(N)cc1 (stereo not given) | % | 11.4 |
| COc1ccccc1P(c1ccccc1OC)c1ccccc1OC | % | 97.3 |
| CCn1c(C)nc([N+](=O)[O-])c1Sc1nc(N)nc2nc[nH]c12 | % | 23.8 |
| CCOc1ccc(NC(=O)Nc2cc(C(C)C)ccc2C)cc1 | % | 104 |
| COc1ccc(-c2nn(-c3ccc(NC(=O)c4cc(C(F)(F)F)cc(C(F)(F)F)c4)cc3)cc2-c2ccncc2)cc1Cl | % | 33.1 |
| COc1cc(C(=O)NNC(=O)c2ccccc2C(=O)O)cc(OC)c1OC | % | 46.8 |

Specify reported growth for the molecule shown: CC(=O)O[C@@H]1[C@@H](OC(C)=O)[C@H](OC(C)=O)CO[C@H]1Nc1cccc2ccccc12
94.5

Specify reported growth for the molecule shown: COc1ccc(-c2nnc(SCC(=O)Nc3ccc(C(=O)/C=C/c4ccc(Cl)cc4)cc3)o2)cc1OC
80.4

* * *

# Tested on: U251 CNS
# experiment_notes: NCI-60 one-dose screen, 48 h (100 = growth as untreated, 0 = no growth, -100 = all killed)
# experimental_conditions: 10 µM unless noted
About 83,000 compounds went through this panel and 20% of them were active in at least one assay; those are over-represented in the sample as a whole. Calls of active or inactive are those of the source. The calls were made as follows: active = growth percent below 10; inactive = the rest.
recorded_endpoint: growth

Previously resolved entries follow.
| compound | tested_on | growth |
| --- | --- | --- |
| CC(=S)Nc1ccccc1 | U251 CNS | 96.2% (inactive) |
| Cc1c(F)cccc1NC(=O)c1sc2nc3c(cc2c1N)CCCCC3 | U251 CNS | 56.3% (inactive) |
| COc1ccc(-c2nn(-c3ccc(NC(=O)c4cc(C(F)(F)F)cc(C(F)(F)F)c4)cc3)cc2-c2ccncc2)cc1Cl | U251 CNS | 52.7% (inactive) |
| Nc1nc(Cl)cc(NCc2ccc(CNc3cc(Cl)nc(N)n3)cc2)n1 | U251 CNS | 98.6% (inactive) |
| CCOc1ccc(NC2=C(Cl)C(=O)c3ccccc3C2=O)cc1 | U251 CNS | 56.9% (inactive) |
| Oc1ccc(Cl)cc1Sc1cc(Cl)ccc1O | U251 CNS | 93.9% (inactive) |

Specify reported growth for the compound shown: Cc1ccc(-c2cn3cc([N+](=O)[O-])ccc3n2)cc1
85.6% (inactive)

Specify reported growth for the compound shown: O=C(Nc1cccc([N+](=O)[O-])c1)Nc1cccc([N+](=O)[O-])c1
50.8% (inactive)

Specify reported growth for the compound shown: O=C1COc2ccccc2C(=O)N1CCCCN1CCCCC1
88.9% (inactive)

Specify reported growth for the compound shown: C#CCn1c(-c2cc(OC)c(OC)cc2Br)nc(-c2ccccc2)c1-c1ccccc1
45.4% (inactive)

Specify reported growth for the compound shown: COc1ccc(C2CC(c3cc(Cl)c(C)cc3OC)=NN2c2ccc(S(N)(=O)=O)cc2)cc1OC (stereo unspecified)
78.4% (inactive)

* * *

# Test system: HOP-62 NSCLC
# experiment_notes: NCI-60 one-dose screen, 48 h (100 = growth as untreated, 0 = no growth, -100 = all killed)
# experimental_conditions: 10 µM unless noted
The panel holds about 83,000 compounds, 20% with a hit somewhere; the sample as a whole holds those more often.
recorded_endpoint: growth (%)
Number in %, nothing else.

| compound_structure | tested_on | growth [%] |
| --- | --- | --- |
| O=[N+]([O-])c1cccc(C(c2ccccc2)c2ccccc2)c1 | HOP-62 NSCLC | 88.7 |
| CCCCOc1nc2ccc(Cl)cc2cc1/C=C/C(=O)/C=C/c1ccc(OC)cc1 | HOP-62 NSCLC | 110 |
| COc1ccccc1S(=O)(=O)Nc1ccc2c3c(cc(-c4ccoc4)nc13)C(=O)N2C | HOP-62 NSCLC | 52.6 |

Name the value of growth reported for O=C1/C(=C/c2cccc3cnccc23)Cc2cc(F)ccc21 when tested on HOP-62 NSCLC.
65.1

* * *

# System: HCT-15 colon
# experiment_notes: NCI-60 one-dose screen, 48 h
# experimental_conditions: 10 µM unless noted
This is part of a sample that, as a whole, favours compounds with a hit. Of some 83,000 tested, about 20% had one in any assay. Calls of active or inactive are those of the source. The calls were made as follows: active = growth percent below 10; inactive = the rest.
One label from this list, please: active, inactive

| molecule | category_label |
| --- | --- |
| C=C1C(=O)O[C@H]2[C@H]1CC/C(COC(=O)c1ccccc1)=C\CC[C@@]1(C)O[C@@H]21 | active |
| O=C(Nc1cccc(-n2ccc3c(NC(=O)c4ccccc4)nccc32)c1)c1cccc(C(F)(F)F)c1 | active |
| COc1ccc(-c2ccc(NC(=O)Nc3cccc(C(F)(F)F)c3)c(C)n2)cc1 | inactive |
| CCOC(=O)c1cnc2c(OC)ccc(OC)c2c1Cl | inactive |

We now examine a further molecule.
Short answer needed: outcome of this test for CC(=O)c1ccc2c(c1)C1C=CCC1[C@H](c1cc3c(cc1Br)OCO3)N2 (stereo not given in full) ?
inactive

* * *

# System: NCI-H460 lung
# experiment_notes: NCI-60 one-dose screen, 48 h (100 = growth as untreated, 0 = no growth, -100 = all killed)
# experimental_conditions: 10 µM unless noted
This is part of a sample that, as a whole, favours compounds with a hit. Of some 83,000 tested, about 20% had one in any assay.
Each entry below carries its recorded growth.
Number in %, nothing else.

Previously resolved entries follow.
| compound | tested_on | test_result |
| --- | --- | --- |
| CCN(CC)CCN1C(=O)c2c(c3c4ccccc4[nH]c3c3[nH]c4ccccc4c23)C1=O | NCI-H460 lung | 69 |
| COc1ccc(OCC(O)CN2CCN(c3ccc(Cl)cc3)CC2)cc1 (centres undefined) | NCI-H460 lung | 93.4 |
| O=C(Nc1cccc([N+](=O)[O-])c1)c1ccc2ccccc2c1O | NCI-H460 lung | 50.2 |
| COc1ccc(C(=O)NC(=O)Nc2ccc3c(c2)NC(=O)/C3=C\c2[nH]c(C)c(C(=O)O)c2C)cc1 | NCI-H460 lung | 100 |
| CC1(C)CC(=O)C2=C(C1)OC1=C(C(=O)CC(C)(C)C1)C2c1ccc(OCc2cn(-c3ccc(F)cc3F)nn2)cc1 | NCI-H460 lung | 100 |

Name the value of growth reported for COc1cccc(/C=N/C(=S)NC2(C)C3CCC(C3)C2(C)C)c1O (centres undefined) when tested on NCI-H460 lung.
60.2

Name the value of growth reported for c1ccc(-c2nc3sc(C(c4ccccc4)c4ccccc4)nn3c2-c2ccccc2)cc1 when tested on NCI-H460 lung.
95.6

Name the value of growth reported for Cc1nssc1=S when tested on NCI-H460 lung.
109

Name the value of growth reported for COc1ccc(-c2nn(-c3ccc(NC(=O)Nc4ccc(Cl)c(C(F)(F)F)c4)cc3)cc2-c2ccncc2)cc1Cl when tested on NCI-H460 lung.
-28.2

* * *

# Tested on: A549/ATCC NSCLC
# experiment_notes: NCI-60 one-dose screen, 48 h (100 = growth as untreated, 0 = no growth, -100 = all killed)
# experimental_conditions: 10 µM unless noted
The panel holds about 83,000 compounds, 20% with a hit somewhere; the sample as a whole holds those more often.
Each entry below carries its recorded growth.
Number in %, nothing else.

| compound | scale_unit | growth |
| --- | --- | --- |
| Clc1ccc(CN2COc3c(ccc4cccnc34)C2)cc1Cl | % | -4.93 |
| COc1ccc2c(c1)nnc1c3cccnc3[nH]c21 | % | 40.8 |
| ClC1c2ccccc2CCc2ccccc21 | % | 93.4 |

Specify reported growth for the compound shown: Cc1cccc(NC(=O)CCc2ccc(N3C(N)=NC(N)=NC3(C)C)cc2)c1
11.8

Specify reported growth for the compound shown: Cc1ccc(Cn2cc(COc3ccc4c5ccnc(C)c5n(CCCc5ccccc5)c4c3)nn2)cc1
94.2

Specify reported growth for the compound shown: C=CCn1c(SCC(=O)Nc2ccc(/C(C)=N\O)cc2)nnc1-c1cc(-c2ccc(OC)cc2)nc2ccccc12
20.1

Specify reported growth for the compound shown: COc1ccc2c(c1)OC(N(C(C)=O)C(C)=O)=C(C#N)C2c1ccc(F)cc1 (stereo not given)
45.1

Specify reported growth for the compound shown: Nc1ncnc2c1c(C(F)(F)F)cn2[C@@H]1O[C@H](CO)[C@@H](O)[C@H]1O
10.5

Specify reported growth for the compound shown: Cc1nc(-c2ccc(Cl)cc2)ccc1NC(=O)Nc1cccc(C(F)(F)F)c1
93.1

Specify reported growth for the compound shown: C=C1c2c(Cl)ccc(O)c2C(O)=C2C(=O)[C@]3(O)C(O)=C(C(N)=O)C(=O)[C@@H](N(C)C)[C@@H]3[C@@H](O)[C@H]12
9.74

These entries and their values trace back to PubChem BioAssay (NCI).
